Each recorded value in this set is attributed to paper PMC7435600.

Kindly supply the reported IC50 values for the records listed here.
targetEntity: protein tyrosine phosphatase 1B (PTP-1B) (Homo sapiens, UniProt P18031)
Construct: made in house
Sequence (P18031 1-435): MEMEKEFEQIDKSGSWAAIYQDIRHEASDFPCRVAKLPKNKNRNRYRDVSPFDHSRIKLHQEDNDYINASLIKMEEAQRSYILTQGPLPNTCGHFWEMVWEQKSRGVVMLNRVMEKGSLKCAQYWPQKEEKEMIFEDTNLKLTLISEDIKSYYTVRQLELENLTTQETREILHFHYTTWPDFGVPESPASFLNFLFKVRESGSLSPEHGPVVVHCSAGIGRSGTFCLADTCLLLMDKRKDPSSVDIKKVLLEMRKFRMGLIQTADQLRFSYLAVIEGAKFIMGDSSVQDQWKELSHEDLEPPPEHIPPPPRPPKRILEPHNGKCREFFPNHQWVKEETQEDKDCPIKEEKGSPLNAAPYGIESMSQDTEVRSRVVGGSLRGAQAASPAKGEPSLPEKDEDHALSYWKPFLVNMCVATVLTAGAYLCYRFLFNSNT
assayName: Protein tyrosine phosphatase 1B inhibition assay (pNPP)
Format: biochemical
assayConditions: hPTP-1B, pNPP substrate, three independent determinations; read-out: PTP-1B inhibitory activity expressed as IC50 (converted)
Give just the numeric value; µM need not be written.

response.value for COc1cc2oc(-c3ccc(O)c(O)c3)cc(=O)c2c(O)c1O [Compound 7, pedalitin] (field: IC50) = 62

response.value for O=c1cc(-c2ccc(O)c(O)c2)oc2cc(O)c(O)c(O)c12 [Compound 3, 6-hydroxyluteolin] (field: IC50) = 80.1

response.value for C[C@@H]1CC[C@@]23COC(=O)C2=C[C@@H](O[C@@H]2O[C@H](CO)[C@@H](O)[C@H](O)[C@H]2O)C[C@@H]3[C@@]1(C)CCC1=CC(=O)OC1O (some centres unmarked) [Compound 8a,b] (field: IC50) = 514

response.value for C[C@@H]1O[C@@H](OC[C@H]2O[C@@H](Oc3c(-c4ccc(O)c(O)c4)oc4cc(O)cc(O)c4c3=O)[C@H](O)[C@@H](O)[C@@H]2O)[C@H](O)[C@H](O)[C@H]1O [Compound 4, rutin] (field: IC50) = 323

response.value for O=C(/C=C/c1ccc(O)c(O)c1)O[C@H](Cc1ccc(O)c(O)c1)C(=O)O [Compound 5, rosmarinic acid] (field: IC50) = 137

response.value for O=c1c(O[C@@H]2O[C@H](CO)[C@@H](O)[C@H](O)[C@H]2O)c(-c2ccc(O)c(O)c2)oc2cc(O)cc(O)c12 [Compound 6, isoquercitrin] (field: IC50) = 260

response.value for CC1CCC23COC(=O)C2=CC(OC2OC(CO)C(O)C(O)C2O)CC3C1(C)CCc1ccoc1 (centres unmarked) [Compound 1, amarisolide] (field: IC50) = 280

response.value for COc1cc(-c2cc(=O)c3c(O)c(O)c(OC)cc3o2)ccc1O [Compound 2, 5,6,4′-trihydroxy-7,3′-dimethoxyflavone] (field: IC50) = 189
